// data source = paper PMC7182039

# Method Description: In vitro metabolic stability in human liver microsomes
# Assay type: in vitro ADME
# Setup Conditions: 37 °C, 0.4 mg/mL protein, NADPH
Test Readout: h CLint

Lab note: measured h CLint of O=C(O)CNC(=O)COc1ccc([C@H]2CC[C@]3(CC2)OOC2(O3)C3CC4CC(C3)CC2C4)cc1 (some centres unmarked) was <7/CND^a,b μL/(min mg) protein

h CLint measured on CC(C)(Oc1ccc([C@H]2CC[C@]3(CC2)OOC2(O3)C3CC4CC(C3)CC2C4)cc1)C(=O)O (some centres unmarked) = <7/7 μL/(min mg) protein

====

# Method Description: Kinetic solubility by nephelometry
# Format: physicochemical
# Setup Conditions: kinetic solubility, pH 6.5 phosphate buffer, 1% DMSO, 30 min
Test Readout: sol6.5

# Compound, sol6.5
rows = [
    ("O=C(O)COc1ccc([C@H]2CC[C@]3(CC2)OOC2(O3)C3CC4CC(C3)CC2C4)cc1Cl (stereo partly drawn) [Compound 7]", "3.1 to 6.3 µg/mL"),
    ("O=C(O)COc1ccc([C@H]2CC[C@]3(CC2)OOC2(O3)C3CC4CC2CC(C3)C4=O)cc1 (stereo partly drawn) [Compound 20]", "50 to 100 µg/mL"),
]

sol6.5 for O=C(O)CCCCOc1ccc([C@H]2CC[C@]3(CC2)OOC2(O3)C3CC4CC(C3)CC2C4)cc1 (stereo partly drawn) [Compound 10] is <1.6/<1.6 μg/mL
